B1: ELF3 (parent)
chain: LSKEYWDCLEGKKSKHAPRGTHLW

- Variants of: B1
- procedure.text: protein stability index of a GFP-peptide fusion (GPS, HEK-293T) (PSI 1-6); higher = more stable;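 further: lentivirally expressed fusions sorted by FACS into six bins by GFP to DsRed ratio, PSI derived from sequencing read proportions per bin multiplied by bin number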
- condition.label: c terminus: a fixed tail appended
# if value of protein stability index reaches 3, tag satisfied; if it stays below, tag not satisfied

For orientation, consider the following solved cases.
alteration: K3A
label.value: not satisfied
//
alteration: L9F
label.value: not satisfied
//
alteration: S2V
label.value: not satisfied
//
alteration: D7I
label.value: not satisfied
//
alteration: E4C
label.value: satisfied
//
alteration: K3F
label.value: not satisfied
//
alteration: H22E
label.value: satisfied
//
alteration: R19M
label.value: not satisfied

Please look at the following variant next.
input: Does the variant L23P have recorded protein stability index that is 3 or more?
output: satisfied
